Cited source: PubChem BioAssay (NCI)

GI50: recorded values
# System: MDA-MB-231 breast
# test: NCI tumour cell line growth inhibition, 48 h
assay.endpoint: GI50

> print(dat)
                                   compound  assay.endpoint  reported.value
1  CCN(CC)CCOc1ccc(/C=C2\CC3C4CCC5=CC(=O)CC[C@]5(C)C4CC[C@]3(C)C2=O)cc1OC (some centres undefined)            GI50         2.55 µM
2  COc1ccc2c(c1)CC[C@@H]1[C@@H]2CC[C@@]2(C)[C@H]1CC1(CCCCC1)[C@@H]2O            GI50         12.9 µM
3  COCCOC(=O)C1=C(C)NC2=C(C(=O)CC(c3ccccc3OC)C2)C1c1cccc(O)c1 (centres undefined)            GI50           13 µM
4  COc1ccc2c(c1)c(C1(c3cn(C)c4ccc(OC)cc34)C(=O)Nc3ccc(F)cc31)cn2C            GI50         2.89 µM

====

# key: entry, value: GI50
# Tested on: MDA-MB-231 breast
# test: NCI tumour cell line growth inhibition, 48 h
assay.endpoint: GI50

> print(dat)
                                   compound     assayed.target  assay.endpoint  reported.value
1  C#C[C@]1(O)CC[C@H]2[C@@H]3CC=C4c5sc(N=C(N)N)nc5CC[C@]4(C)[C@H]3CC[C@@]21C  MDA-MB-231 breast            GI50         1.14 µM
2  CC1(C)N=C(N)N=C(N)N1c1ccc(F)c(C(F)(F)F)c1  MDA-MB-231 breast            GI50        > 100 µM
3            CCCCC(=O)N/N=C/c1cc(I)cc(I)c1O  MDA-MB-231 breast            GI50         2.73 µM
4  N#Cc1ccccc1C#C/C=C\C#Cc1ccc(OCCCNC(=O)c2cc3ccccc3[nH]2)cc1  MDA-MB-231 breast            GI50         13.3 µM
5  C=CC1CC12C(=O)C1OC2(C)C2C(=O)c3c(ccc4c3ccc3ccccc34)C(=O)C12 (stereo not drawn)  MDA-MB-231 breast            GI50         39.1 µM
6  CN1CCN(c2ccc3c4c(cccc24)C(=O)N(CCN2CCN(CCCN4CCN(CCN5C(=O)c6cccc7c(N8CCN(C)CC8)ccc(c67)C5=O)CC4)CC2)C3=O)CC1  MDA-MB-231 breast            GI50         6.33 µM
7  O=C1c2ccccc2C(=O)N1c1ccc(S(=O)(=O)Nc2ncccn2)cc1  MDA-MB-231 breast            GI50        > 100 µM
8  CN1CCN(c2ccc3nc(-c4cc(C(C)(C)C)c(O)c(C(C)(C)C)c4)[nH]c3c2)CC1  MDA-MB-231 breast            GI50         2.09 µM

====

# TGI per entry
# Tested on: DLD-1 colon
# test: NCI tumour cell line growth inhibition, 48 h
assay.endpoint: TGI

> print(dat)
                                   compound  reported.value
1             O=c1[nH]c(Br)nc2c(Br)c[nH]c12        > 100 µM
2  CCC[CH2][Sn]([CH2]CCC)([O]C(=O)c1cccc(F)c1)[O]C(=O)c1cccc(F)c1         2.32 µM
3  Cc1ccc(C)c(NC(=O)c2cc(-c3ccc([N+](=O)[O-])cc3)nc(N)n2)c1        > 100 µM
4  CC(C)C(=O)N[C@@H](C)C(=O)N(Cc1ccc2ccccc2c1)N=O        > 100 µM
5                O=C1CCCC/C1=C/C=C/c1ccccc1        > 100 µM
6  CC1(O)CC2C(CC1SCCO)C2(C)C (stereo unspecified)        > 100 µM

====

# System: OVCAR-5 ovarian
# test: NCI tumour cell line growth inhibition, 48 h
assay.endpoint: TGI

> print(dat)
                                   molecule  reported.value
1  CC(C)C(=O)N[C@@H](C)C(=O)N(Cc1ccc2ccccc2c1)N=O        > 100 µM
2  O=C1Nc2ccccc2C1Cc1ccccc1 (stereo not drawn)        > 100 µM
3  CC1(O)CC2C(CC1SCCO)C2(C)C (stereo not drawn)        > 100 µM
4  O=C(CCC(=O)Nc1ccc(Cl)cc1)CC(=O)c1ccc(F)cc1        > 100 µM
5  Nc1ccc(Nc2nc(F)nc(-c3c4ccccc4c4n3CCS4)n2)cc1         32.8 µM
6  C=C(C=O)c1c2c(nc3ccccc13)C(=O)c1ccccc1C2=O         4.92 µM
7         O=C(O)CSCC(=O)Nc1ccc2cccc3c2c1CC3        > 100 µM
8  O=C1OC(c2ccc(O)c(-c3ccccc3)c2)(c2ccc(O)c(-c3ccccc3)c2)c2c(Cl)c(Cl)c(Cl)c(Cl)c21        > 100 µM

====

# System: CCRF-CEM leukemia
# test: NCI tumour cell line growth inhibition, 48 h; in the data active means GI50 below about 0.43 µM; inactive means the rest
Outcomes: active, inactive

> print(dat)
                                   molecule  label.value
1  CS(=O)(=O)CCNCc1ccc(-c2ccc3ncnc(Nc4ccc(OCc5cccc(C(F)(F)F)c5)cc4)c3c2)o1     inactive
2  CC(C)=CCc1c(O)cc(/C=C/c2cc(O)c3c(c2)C[C@@H]2C(C)(C)[C@H](O)[C@H](O)C[C@@]2(C)O3)cc1O       active
3  CCN(CC)c1ccc2c(c1)Oc1nc(N)c(C#N)c(N)c1C2Sc1ccc(SC)cc1 (centres undefined)     inactive
4  CCC(Sc1nnc2c3ccccc3n(CC)c2n1)C(=O)Nc1ccccc1OC (centres undefined)     inactive
5  COc1ccc2c(c1)c(C1(c3cn(C)c4ccc(OC)cc34)C(=O)Nc3ccc(F)cc31)cn2C     inactive
6  CCC[C@H](N[C@@H]1CCc2cc(F)cc(F)c2C1)C(=O)Nc1cn(C(C)(C)CNCC(C)(C)C)cn1     inactive
7  O=C1/C(=C/c2ccccc2Cl)N=C(c2ccccc2)N1Cc1ccco1     inactive
8                  CCCN(CCC)c1ccc(CO)c(C)c1     inactive
9  CCC[CH2][Sn]([CH2]CCC)([O]C(=O)c1cccc(F)c1)[O]C(=O)c1cccc(F)c1       active

====

# Tested on: HCT-116 colon
# test: NCI tumour cell line growth inhibition, 48 h
assay.endpoint: TGI (µM)

> print(dat)
                                   molecule  assay.endpoint  inequality.symbol  reported.value
1  CC1C(c2ccc3c(c2)OCO3)c2cc3c(cc2OC1N1CCCC1)OCO3 (stereo not given)             TGI                  =            54.8
2  C=C(C=O)c1c2c(nc3ccccc13)C(=O)c1ccccc1C2=O             TGI                  =            3.48
3  COc1ccc(O)c(C(=O)c2ccc(C(=O)O[C@@H]3CCCNC[C@H]3NC(=O)c3ccncc3)cc2)c1F             TGI                  >              25
4  N#Cc1c(-c2ccccc2)/c(=C\O)c(=O)n2c1nc1ccccc12             TGI                  >             100
5  CC(C)C(C/C=C1/CC(CO)(COC(=O)CC(C(C)C)C(C)C)OC1=O)C(C)C (stereo not given)             TGI                  =            35.1

====

# Test system: KM20L2 colon
# test: NCI tumour cell line growth inhibition, 48 h
Quick reference: TGI of the listed items.
assay.endpoint: TGI

> print(dat)
                                    molecule  assay.endpoint  reported.value
 1                   O=C(NO)c1coc2ccccc2c1=O             TGI        > 100 µM
 2  CC(=O)[O-].CC(=O)[O-].O=C(N/N=C/c1cc(Cl)cc(Cl)c1[OH2+])c1ccncc1.[Co+2]             TGI        > 100 µM
 3  Cc1c(-c2cc3n(n2)C(c2cccs2)C(C#N)=C(c2ccccc2)N3)c(=O)n(-c2ccccc2)n1C (stereo unspecified)             TGI       > 31.6 µM
 4        Cc1ccccc1C(=O)Oc1ccc(Oc2ccccc2)cc1             TGI        > 100 µM
 5                CCOC(=O)/N=C(\N)SCc1ccccc1             TGI        > 100 µM
 6  CC(=O)N1CC2Nc3ccccc3C2CC1CO (stereo unspecified)             TGI        > 100 µM
 7     CC1=CC(C)(C)N=C2SC(c3ccc(Cl)cc3)=NN12             TGI        > 100 µM
 8  O=c1/c(=C/c2ccc(Cl)cc2Cl)sc2nc3ccccc3n12             TGI        > 100 µM
 9             O=c1[nH]c(Br)nc2c(Br)c[nH]c12             TGI        > 100 µM
10         COc1cc2c(c(OC)c1OC)-c1[nH]ncc1CC2             TGI        > 100 µM
11            CCCNCc1nc2ccc(Br)cc2c(=O)n1CCC             TGI         34.3 µM
12  O=C1C=C(Nc2ccccc2C(=O)CC(=O)C(=O)Nc2cccc(C(F)(F)F)c2)c2ccccc2C1=O             TGI        > 100 µM
13                O=C1CCCC/C1=C/C=C/c1ccccc1             TGI        > 100 µM
14  Nc1ccc(Nc2nc(F)nc(-c3c4ccccc4c4n3CCS4)n2)cc1             TGI         33.5 µM
15  CC(=O)OC1CCn2nnc(COC(=O)NC(C)C)c21 (stereo unspecified)             TGI        > 100 µM
16                    C(=C\c1csnn1)/c1cccnc1             TGI        > 100 µM
